Sourced from patent US20260258115A1

target.under.test: RSV prefusion F (preF), subtype B (respiratory syncytial virus, subtype B)
experiment.description: BLI, IgG
pKd: −log10 of the molar value.
parameter.measured: pKd

binder | value.observed
ADI-21046 (antibody, V domains shown) VH: EVQLVESGAEAKKPGESLRISCTVSGYSFSKYWVGWVRQTPGKGLEWMGIIDPTDSDTRYSPSFQGQVTISVDNSINTAYLQWSSLKASDTAIYYCARRGQAKCVGNCPRDFMDVWGKGTTVTVSS VL: SYVLTQPPSVSGAPGQRVTISCAGSSSNIGAGYEVHWYQQLPGTAPKLLIYANRNRPSGVPDRFSGSRSGTSASLAISGLQAEDEADYYCQSYDNNLSGSWVFGGGTKLTVL | 9.16
ADI-20971 (antibody, V domains shown) VH: EVQLVESGGGLVKPGESLRLSCAASGFTFSDYSMTWIRQAPGKGLLEWIAYINSQSNYMDYADSVKGRFTISRDNAKNSLYLQMNGLRADDTAVYFCARDRRTFVAATLGWFDPWGQGTLVTVSS VL: ETTLTQSPATLSVSPGERATLSCRASQSVSNNVAWYQQKPGQAPRVLIYAASTRATGIPARFSGSESGTEFTLTISSLQSEDFAVYYCQQYNNWPRTFGQGTKLEIK | 9.26
